Tested on: ChaGo-K-1
METHOD: relative viability (nuclei count vs DMSO), 5 days (fraction); higher = more cells survive
RUN CONDITIONS: first compound 0.01 µM
RECORDED ENDPOINT: relative viability

| COMPOUND | QUANTITATIVE READOUT |
| --- | --- |
| CC(C)Oc1cc(Nc2nc(N[C@@H](C)c3ccc(F)cn3)ncc2Cl)n[nH]1 [AZ23] + CC(=O)c1c(C)c2cnc(Nc3ccc(N4CCNCC4)cn3)nc2n(C2CCCC2)c1=O [Palbociclib] (partner 0.5 µM) | 1.12 |
| CC(C)Oc1cc(Nc2nc(N[C@@H](C)c3ccc(F)cn3)ncc2Cl)n[nH]1 [AZ23] + CC(=O)Nc1cccc(-n2c(=O)n(C3CC3)c(=O)c3c(Nc4ccc(I)cc4F)n(C)c(=O)c(C)c32)c1 [Trametinib] (partner 0.02 µM) | 0.855 |

====

Tested on: EPLC-272H
METHOD: relative viability (nuclei count vs DMSO), 5 days (fraction); higher = more cells survive
RUN CONDITIONS: first compound 0.04 µM
A collection of compounds and their measured relative viability

| COMPOUND | relative viability |
| --- | --- |
| C[C@@H]1CN(CC(=O)Nc2ccc3c(c2)Cc2cccc(-c4cc(=O)cc(N5CCOCC5)o4)c2S3)C[C@H](C)O1 + CS(=O)(=O)CCNCc1ccc(-c2ccc3ncnc(Nc4ccc(OCc5cccc(F)c5)c(Cl)c4)c3c2)o1 [Lapatinib] (partner 2 µM) | 0.837 |
| C[C@@H]1CN(CC(=O)Nc2ccc3c(c2)Cc2cccc(-c4cc(=O)cc(N5CCOCC5)o4)c2S3)C[C@H](C)O1 + CS(=O)(=O)N1CCN(Cc2cc3nc(-c4cccc5[nH]ncc45)nc(N4CCOCC4)c3s2)CC1 [Pictilisib] (partner 1 µM) | 0.272 |
| C[C@@H]1CN(CC(=O)Nc2ccc3c(c2)Cc2cccc(-c4cc(=O)cc(N5CCOCC5)o4)c2S3)C[C@H](C)O1 + COc1cc2c(Oc3ccc(NC(=O)C4(C(=O)Nc5ccc(F)cc5)CC4)cc3F)ccnc2cc1OCCCN1CCOCC1 [Foretinib] (partner 0.25 µM) | 0.643 |
| Clc1ccc(Nc2nnc(Cc3ccncc3)c3ccccc23)cc1 [Vatalanib] + O=C(c1cc(Cc2n[nH]c(=O)c3ccccc23)ccc1F)N1CCN(C(=O)C2CC2)CC1 [Olaparib] (partner 8 µM) | 0.944 |
| Clc1ccc(Nc2nnc(Cc3ccncc3)c3ccccc23)cc1 [Vatalanib] + CC(C)C[C@H](NC(=O)[C@H](Cc1ccccc1)NC(=O)c1cnccn1)B(O)O [Bortezomib] (partner 0.002 µM) | 1.08 |
| COc1cc(N2CCC(C(N)=O)CC2)ccc1Nc1nc(N)c(Cl)c(Nc2ccccc2S(=O)(=O)C(C)C)n1 [HG-5-88-01] + O=C(CCCCCCC(=O)Nc1ccccc1)NO [Vorinostat] (partner 1 µM) | 0.497 |

====

Tested on: H3255
METHOD: relative viability (nuclei count vs DMSO), 5 days (fraction); higher = more cells survive
RUN CONDITIONS: first compound 4 µM
Doc: threshold 0.5 (exclusive). Items with relative viability beneath it return Y; others return N.

| MOLECULE | LABEL VALUE |
| --- | --- |
| Clc1ccc(Nc2nnc(Cc3ccncc3)c3ccccc23)cc1 [Vatalanib] + C[C@@H](Oc1cc(-c2cnn(C3CCNCC3)c2)cnc1N)c1c(Cl)ccc(F)c1Cl [Crizotinib] (partner 1 µM) | N |
| COc1cc(N2CCC(C(N)=O)CC2)ccc1Nc1nc(N)c(Cl)c(Nc2ccccc2S(=O)(=O)C(C)C)n1 [HG-5-88-01] + Cc1nc(NC(=O)N2CCC[C@H]2C(N)=O)sc1-c1ccnc(C(C)(C)C(F)(F)F)c1 [Alpelisib] (partner 2 µM) | Y |
| Clc1ccc(Nc2nnc(Cc3ccncc3)c3ccccc23)cc1 [Vatalanib] + CC(=O)Nc1cccc(-n2c(=O)n(C3CC3)c(=O)c3c(Nc4ccc(I)cc4F)n(C)c(=O)c(C)c32)c1 [Trametinib] (partner 0.02 µM) | N |
| C[C@@H]1CN(CC(=O)Nc2ccc3c(c2)Cc2cccc(-c4cc(=O)cc(N5CCOCC5)o4)c2S3)C[C@H](C)O1 + CC(C)C[C@H](NC(=O)[C@H](Cc1ccccc1)NC(=O)c1cnccn1)B(O)O [Bortezomib] (partner 0.002 µM) | N |
| Clc1ccc(Nc2nnc(Cc3ccncc3)c3ccccc23)cc1 [Vatalanib] + CS(=O)(=O)CCNCc1ccc(-c2ccc3ncnc(Nc4ccc(OCc5cccc(F)c5)c(Cl)c4)c3c2)o1 [Lapatinib] (partner 2 µM) | Y |
| Clc1ccc(Nc2nnc(Cc3ccncc3)c3ccccc23)cc1 [Vatalanib] + CCNC(=O)c1noc(-c2cc(C(C)C)c(O)cc2O)c1-c1ccc(CN2CCOCC2)cc1 [Luminespib] (partner 0.01 µM) | N |
| C[C@@H]1CN(CC(=O)Nc2ccc3c(c2)Cc2cccc(-c4cc(=O)cc(N5CCOCC5)o4)c2S3)C[C@H](C)O1 + N=C(N)NC(=N)NCCc1ccccc1 [Phenformin] (partner 250 µM) | Y |
| C[C@@H]1CN(CC(=O)Nc2ccc3c(c2)Cc2cccc(-c4cc(=O)cc(N5CCOCC5)o4)c2S3)C[C@H](C)O1 + CS(=O)(=O)CCNCc1ccc(-c2ccc3ncnc(Nc4ccc(OCc5cccc(F)c5)c(Cl)c4)c3c2)o1 [Lapatinib] (partner 2 µM) | Y |
| C[C@@H]1CN(CC(=O)Nc2ccc3c(c2)Cc2cccc(-c4cc(=O)cc(N5CCOCC5)o4)c2S3)C[C@H](C)O1 + Cc1nc(Nc2ncc(C(=O)Nc3c(C)cccc3Cl)s2)cc(N2CCN(CCO)CC2)n1 [Dasatinib] (partner 0.075 µM) | Y |
| Clc1ccc(Nc2nnc(Cc3ccncc3)c3ccccc23)cc1 [Vatalanib] + COc1cc2c(Oc3ccc(NC(=O)C4(C(=O)Nc5ccc(F)cc5)CC4)cc3F)ccnc2cc1OCCCN1CCOCC1 [Foretinib] (partner 0.25 µM) | N |
| Clc1ccc(Nc2nnc(Cc3ccncc3)c3ccccc23)cc1 [Vatalanib] + O=C(c1cc(Cc2n[nH]c(=O)c3ccccc23)ccc1F)N1CCN(C(=O)C2CC2)CC1 [Olaparib] (partner 8 µM) | N |
| COc1cc(N2CCC(C(N)=O)CC2)ccc1Nc1nc(N)c(Cl)c(Nc2ccccc2S(=O)(=O)C(C)C)n1 [HG-5-88-01] + O=C(c1cc(Cc2n[nH]c(=O)c3ccccc23)ccc1F)N1CCN(C(=O)C2CC2)CC1 [Olaparib] (partner 8 µM) | N |
| COc1cc(N2CCC(C(N)=O)CC2)ccc1Nc1nc(N)c(Cl)c(Nc2ccccc2S(=O)(=O)C(C)C)n1 [HG-5-88-01] + Cc1nc(Nc2ncc(C(=O)Nc3c(C)cccc3Cl)s2)cc(N2CCN(CCO)CC2)n1 [Dasatinib] (partner 0.075 µM) | Y |
| Clc1ccc(Nc2nnc(Cc3ccncc3)c3ccccc23)cc1 [Vatalanib] + Cc1cc(Nc2cc(N3CCN(C)CC3)nc(Sc3ccc(NC(=O)C4CC4)cc3)n2)n[nH]1 [Tozasertib] (partner 0.1 µM) | N |

====

Test system: NCI-H1975
METHOD: relative viability (nuclei count vs DMSO), 5 days (fraction); higher = more cells survive
RUN CONDITIONS: first compound 8 µM
RECORDED ENDPOINT: relative viability

| COMPOUND | RECORDED ENDPOINT | QUANTITATIVE READOUT |
| --- | --- | --- |
| CCCCCCCCCCCC1=C(O)C(=O)C=C(O)C1=O [Embelin] + O=C(c1cc(Cc2n[nH]c(=O)c3ccccc23)ccc1F)N1CCN(C(=O)C2CC2)CC1 [Olaparib] (partner 8 µM) | relative viability | 0.904 |
| CCCCCCCCCCCC1=C(O)C(=O)C=C(O)C1=O [Embelin] + C[C@@H](Oc1cc(-c2cnn(C3CCNCC3)c2)cnc1N)c1c(Cl)ccc(F)c1Cl [Crizotinib] (partner 1 µM) | relative viability | 1.04 |
| CCCCCCCCCCCC1=C(O)C(=O)C=C(O)C1=O [Embelin] + COc1cccc2cc(-c3nc([C@H]4CC[C@H](C(=O)O)CC4)n4ncnc(N)c34)[nH]c12 [OSI-027] (partner 0.5 µM) | relative viability | 0.768 |

====

Test system: HOP-62
METHOD: relative viability (nuclei count vs DMSO), 5 days (fraction); higher = more cells survive
RUN CONDITIONS: first compound 2.53 µM
A collection of molecules and their measured relative viability

| MOLECULE | relative viability |
| --- | --- |
| CCCCCCCCCCCC1=C(O)C(=O)C=C(O)C1=O [Embelin] + COc1cc2c(Oc3ccc(NC(=O)C4(C(=O)Nc5ccc(F)cc5)CC4)cc3F)ccnc2cc1OCCCN1CCOCC1 [Foretinib] (partner 0.25 µM) | 1.23 |
| CCCCCCCCCCCC1=C(O)C(=O)C=C(O)C1=O [Embelin] + NC(=O)Nc1cc(-c2cccc(F)c2)sc1C(=O)N[C@H]1CCCNC1 [AZD7762] (partner 0.2 µM) | 0.734 |
| CCCCCCCCCCCC1=C(O)C(=O)C=C(O)C1=O [Embelin] + O=C(CCCCCCC(=O)Nc1ccccc1)NO [Vorinostat] (partner 1 µM) | 0.504 |
| CCCCCCCCCCCC1=C(O)C(=O)C=C(O)C1=O [Embelin] + O=C(c1cc(Cc2n[nH]c(=O)c3ccccc23)ccc1F)N1CCN(C(=O)C2CC2)CC1 [Olaparib] (partner 8 µM) | 0.354 |
| CCCCCCCCCCCC1=C(O)C(=O)C=C(O)C1=O [Embelin] + Cc1nc(Nc2ncc(C(=O)Nc3c(C)cccc3Cl)s2)cc(N2CCN(CCO)CC2)n1 [Dasatinib] (partner 0.075 µM) | 0.68 |
